experimentalDetails: Lipophilicity, logD of the compound at pH 7.4
Assay type: physicochemical
conditionInfo: buffer
observedProperty: logD

* Cc1cc(F)ncc1C(=O)Nc1ccc([C@@H]2C[C@H]2NCC2CC2)cc1 | 1.62

* * *

experimentalDetails: Volume of distribution at steady state in cynomolgus monkey at 0.1 mg/kg, iv by LC-MS/MS analysis
Assay type: ADME, organism-based, Macaca fascicularis
conditionInfo: in vivo, read-out: Vdss
observedProperty: Vd

* Cc1cc(F)ncc1C(=O)Nc1ccc([C@@H]2C[C@H]2NCC2CC2)cc1 | 3.13 L/kg

* * *

system: LSD1/CoREST complex (Homo sapiens)
experimentalDetails: Inhibition of human recombinant LSD1/CoREST using ART(mK)QTARKSTGGKAPRKQLAGGK-biotin as substrate incubated for 15 mins
# note: exactly 7 nM is not below, so it is NOT MET; use MET for IC50 strictly under it

* Cc1cc(F)ncc1N(C)C(=O)c1ccc([C@@H]2C[C@H]2NCC2CC2)cc1 | MET
* O=C(Nc1ccc([C@@H]2C[C@H]2NCC2CC2)cc1)c1ccc(F)nc1 | NOT MET
* Cc1nc(F)ccc1N(C)C(=O)c1ccc([C@@H]2C[C@H]2NCC2CC2)cc1 | MET
* O=C(c1ccc([C@@H]2C[C@H]2NCC2CC2)cc1)N1CC(F)C1 | NOT MET
* O=C(c1ccc([C@@H]2C[C@H]2NCC2CC2)cc1)N1CCC(F)CC1 | NOT MET

* * *

experimentalDetails: AUC(0 to 6 hrs) in cynomolgus monkey at 0.1 mg/kg, iv by LC-MS/MS analysis
Assay type: ADME, organism-based, Macaca fascicularis
Design: dose 0.1 mg/kg, route iv
conditionInfo: in vivo
observedProperty: AUC(0-t) (ng·h/mL)

• Cc1cc(F)ncc1C(=O)Nc1ccc([C@@H]2C[C@H]2NCC2CC2)cc1 = 51.6

* * *

experimentalDetails: Half life in cynomolgus monkey at 0.1 mg/kg, iv by LC-MS/MS analysis
Format: ADME, organism-based, Macaca fascicularis
conditionInfo: in vivo
observedProperty: half-life

* Cc1cc(F)ncc1C(=O)Nc1ccc([C@@H]2C[C@H]2NCC2CC2)cc1 | 1.75 h
